procedure-summary: Phase 1 SRD/multiple-rising dose (MRD, Part 2) plasma PK in healthy subjects
Assay type: in vivo, human
condition-label: both sexes, human, plasma, oral, 3 mg, 3 mg QD, Study Day 18; mean; read-out: AUCτ
experimental-endpoint: AUC (ng·h/mL)
Output spec: scalar in ng·h/mL, unitless text.

### Prompt Identify the reported AUC for the following entry. CC1=CN2CCS(=O)(=O)N=C2C(c2ccc(OC3CCCCC3)cc2)=N1
### Response 1950

* * *

procedure-summary: Phase 1 SRD/multiple-rising dose (MRD, Part 2) plasma PK in healthy subjects
Type: in vivo, human
condition-label: both sexes, human, plasma, oral; 3 mg QD cohort, Study Day 1; mean; read-out: Vz/F
experimental-endpoint: Vd/F (L)
Output spec: scalar in L, unitless text.

### Prompt Identify the reported Vd/F for the following entry. CC1=CN2CCS(=O)(=O)N=C2C(c2ccc(OC3CCCCC3)cc2)=N1
### Response 126

* * *

procedure-summary: Phase 1 SRD/multiple-rising dose (MRD, Part 2) plasma PK in healthy subjects
Format: in vivo, human
condition-label: both sexes, human, plasma, oral, 6 mg, 6 mg QD, Study Day 18; median, n = 5; read-out: tmax
experimental-endpoint: Tmax (h)
Output spec: scalar in h, unitless text.

### Prompt Identify the reported Tmax for the following entry. CC1=CN2CCS(=O)(=O)N=C2C(c2ccc(OC3CCCCC3)cc2)=N1 [COMPOUND A]
### Response 3.05

* * *

procedure-summary: Phase 1 SRD/multiple-rising dose (MRD, Part 2) plasma PK in healthy subjects
Type: in vivo, human
condition-label: both sexes, human, plasma, oral, 3 mg, 3 mg QD cohort, Study Day 1; median; read-out: tmax
experimental-endpoint: Tmax (h)
Output spec: scalar in h, unitless text.

### Prompt Identify the reported Tmax for the following entry. CC1=CN2CCS(=O)(=O)N=C2C(c2ccc(OC3CCCCC3)cc2)=N1
### Response 1.5

* * *

procedure-summary: Phase 1 SRD/multiple-rising dose (MRD, Part 2) plasma PK in healthy subjects
Format: in vivo, human
condition-label: both sexes, human, plasma, oral, 1 mg, 1 mg QD cohort, Study Day 1; median; read-out: tmax
experimental-endpoint: Tmax
Units required after the number.

### Prompt Identify the reported Tmax for the following entry. CC1=CN2CCS(=O)(=O)N=C2C(c2ccc(OC3CCCCC3)cc2)=N1
### Response 4 h

* * *

procedure-summary: Phase 1 single-rising dose (SRD, Part 1) plasma PK in healthy subjects
Assay type: in vivo, human
condition-label: both sexes, human, plasma; single oral 9 mg; mean, N = 6; read-out: Cmax
experimental-endpoint: Cmax (ng/mL)
Output spec: scalar in ng/mL, unitless text.

### Prompt Identify the reported Cmax for the following entry. CC1=CN2CCS(=O)(=O)N=C2C(c2ccc(OC3CCCCC3)cc2)=N1 [COMPOUND A]
### Response 69.5

* * *

procedure-summary: Phase 1 SRD/multiple-rising dose (MRD, Part 2) plasma PK in healthy subjects
Type: in vivo, human
condition-label: both sexes, human, plasma, oral, 1 mg, 1 mg QD, Study Day 18; mean; read-out: AUCτ
experimental-endpoint: AUC (ng·h/mL)
Output spec: scalar in ng·h/mL, unitless text.

### Prompt Identify the reported AUC for the following entry. CC1=CN2CCS(=O)(=O)N=C2C(c2ccc(OC3CCCCC3)cc2)=N1
### Response 503

Data origin, for the record: patent US20230338391A1
